target: M-phase inducer phosphatase 1 (Homo sapiens) (UniProt P30304); assay: Inhibition of human recombinant GST-tagged CDC25A expressed in bacterial expression system at 100 uM after 2 hrs
Experimental Endpoint: inhibition (%)

(P) COc1ccc2c(CSCC(=O)c3ccc(OC)c(OC)c3)cc(=O)oc2c1
(Q) COc1ccc2c(/C=C/C(=O)c3ccccc3)cc(=O)oc2c1
(R) COc1ccc2c(/C=C/C(=O)c3ccc(OC)c(OC)c3)cc(=O)oc2c1
Problem: Sort the list above on inhibition in ascending fashion. I would appreciate it if you listed the labels in the requested order.
Solution: P, R, Q
(P: 39.8%, R: 61.5%, Q: 94.2%)

---

biological target: M-phase inducer phosphatase 3 (Homo sapiens, UniProt P30307); assay: Inhibition of human recombinant GST-tagged CDC25C expressed in bacterial expression system after 2 hrs
Sequence (P30307 whole entry): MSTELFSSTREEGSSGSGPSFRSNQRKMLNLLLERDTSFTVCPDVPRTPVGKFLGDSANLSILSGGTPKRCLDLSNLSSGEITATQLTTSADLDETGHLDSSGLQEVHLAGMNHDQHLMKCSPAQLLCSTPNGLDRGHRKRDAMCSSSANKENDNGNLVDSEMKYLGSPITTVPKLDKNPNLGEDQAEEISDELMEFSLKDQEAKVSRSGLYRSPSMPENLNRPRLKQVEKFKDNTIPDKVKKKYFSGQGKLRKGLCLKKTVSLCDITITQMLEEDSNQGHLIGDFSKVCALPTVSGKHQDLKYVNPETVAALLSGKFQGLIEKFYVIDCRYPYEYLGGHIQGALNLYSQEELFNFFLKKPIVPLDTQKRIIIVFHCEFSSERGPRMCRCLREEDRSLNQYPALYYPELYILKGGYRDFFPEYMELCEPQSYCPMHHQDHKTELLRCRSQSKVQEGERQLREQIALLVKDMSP
pIC50: −log10 of the molar value.
Experimental Endpoint: pIC50

# Chemical Structure, pIC50
rows = [
    ("COc1ccc2c(/C=C/C(=O)c3ccccc3)cc(=O)oc2c1", 4.31),
    ("O=C(/C=C/c1cc(=O)oc2cc(O)ccc12)c1ccc(O)c(O)c1", 4.14),
    ("COc1ccc2c(/C=C/C(=O)c3ccc(OC)c(OC)c3)cc(=O)oc2c1", 4.17),
]

(A) COc1ccc(C(=O)/C=C/c2cc(=O)oc3cc(OC)ccc23)cc1
(B) O=C(/C=C/c1cc(=O)oc2cc(O)ccc12)c1ccccc1
Problem: # query: argmin of pIC50 over A and B Kindly state the label of the option you pick.
Solution: A

---

Biological target: M-phase inducer phosphatase 2 (Homo sapiens) (UniProt P30305)
Sequence (whole entry): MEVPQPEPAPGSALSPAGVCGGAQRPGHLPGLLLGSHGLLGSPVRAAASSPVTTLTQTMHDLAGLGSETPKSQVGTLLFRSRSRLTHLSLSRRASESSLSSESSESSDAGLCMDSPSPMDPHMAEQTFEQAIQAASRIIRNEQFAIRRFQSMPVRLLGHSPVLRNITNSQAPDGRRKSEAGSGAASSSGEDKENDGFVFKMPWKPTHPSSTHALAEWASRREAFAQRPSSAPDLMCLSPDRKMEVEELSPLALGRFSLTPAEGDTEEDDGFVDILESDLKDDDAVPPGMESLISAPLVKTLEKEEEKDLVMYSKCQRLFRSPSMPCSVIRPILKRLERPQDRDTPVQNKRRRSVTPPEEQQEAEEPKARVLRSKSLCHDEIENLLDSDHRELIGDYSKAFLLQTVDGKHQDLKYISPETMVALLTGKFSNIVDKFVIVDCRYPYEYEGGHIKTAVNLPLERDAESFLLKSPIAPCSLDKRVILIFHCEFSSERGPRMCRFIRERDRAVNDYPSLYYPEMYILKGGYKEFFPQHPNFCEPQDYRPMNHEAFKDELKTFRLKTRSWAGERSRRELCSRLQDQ
Assay: Inhibition of human recombinant GST-tagged CDC25B expressed in bacterial expression system at 100 uM after 2 hrs
Experimental Endpoint: inhibition (%)

# Chemical Structure, inhibition / %
data = [
    ("COc1ccc2c(C(=O)/C=C/c3ccc(OC)c(OC)c3)cc(=O)oc2c1", 9.1),
]

(1) Cc1c(/C=C/c2ccc(O)cc2)c(=O)oc2cc(O)ccc12
(2) O=C(/C=C/c1cc(=O)oc2cc(O)ccc12)c1ccccc1
Problem: # query: argmin of inhibition over 1 and 2 Kindly state the label of the option you pick.
Solution: 1

(A) O=C(/C=C/c1cc(=O)oc2cc(O)ccc12)c1ccc(O)cc1
(B) COc1ccc2c(/C=C/C(=O)c3ccccc3)cc(=O)oc2c1
Problem: # query: argmin of inhibition over A and B Kindly state the label of the option you pick.
Solution: A
(A: 9.2%, B: 35%)

(1) COc1ccc2c(/C=C/C(=O)c3ccc(OC)c(OC)c3)cc(=O)oc2c1
(2) COc1ccc2c(CSCC(=O)c3ccccc3)cc(=O)oc2c1
Problem: # query: argmin of inhibition over 1 and 2 Kindly state the label of the option you pick.
Solution: 1
(1: 6.5%, 2: 16.1%)

---

target: M-phase inducer phosphatase 3 (Homo sapiens); assay: Inhibition of human recombinant GST-tagged CDC25C expressed in bacterial expression system at 100 uM after 2 hrs
Experimental Endpoint: inhibition (%)

(a) Cc1c(/C=C/c2ccc(O)cc2)c(=O)oc2cc(O)ccc12
(b) COc1ccc(C(=O)CSCc2cc(=O)oc3cc(OC)ccc23)cc1
(c) COc1ccc(/C=C/c2c(C)c3ccc(OC)cc3oc2=O)cc1
Problem: Reorder: inhibition, max to min. I would appreciate it if you listed the labels in the requested order.
Solution: c, b, a
(c: 48.4%, b: 27.9%, a: 15.6%)

---

Target: M-phase inducer phosphatase 1 (Homo sapiens) (UniProt P30304)
Sequence (whole entry): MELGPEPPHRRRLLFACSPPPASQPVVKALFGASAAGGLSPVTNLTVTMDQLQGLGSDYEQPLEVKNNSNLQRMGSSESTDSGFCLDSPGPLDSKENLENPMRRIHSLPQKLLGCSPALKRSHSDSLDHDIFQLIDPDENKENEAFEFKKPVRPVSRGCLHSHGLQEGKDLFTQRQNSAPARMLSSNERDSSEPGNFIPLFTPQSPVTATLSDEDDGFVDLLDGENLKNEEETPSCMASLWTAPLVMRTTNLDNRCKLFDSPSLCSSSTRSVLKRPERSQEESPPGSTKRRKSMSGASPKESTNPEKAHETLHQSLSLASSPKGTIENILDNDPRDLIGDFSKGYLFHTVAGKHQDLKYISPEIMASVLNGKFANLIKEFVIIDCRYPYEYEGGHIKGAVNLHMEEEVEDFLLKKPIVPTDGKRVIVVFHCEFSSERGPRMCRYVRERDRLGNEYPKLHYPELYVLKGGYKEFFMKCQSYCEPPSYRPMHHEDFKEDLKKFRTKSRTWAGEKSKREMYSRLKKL
Assay: Inhibition of human recombinant GST-tagged CDC25A expressed in bacterial expression system at 100 uM after 2 hrs
Experimental Endpoint: inhibition (%)

The examples below pair each entry with its known result.
# Chemical Structure, Target Or Test System, Experimental Endpoint, Readout Value
measured = [
    ("Cc1c(/C=C/c2ccc(O)cc2)c(=O)oc2cc(O)ccc12", "M-phase inducer phosphatase 1 (Homo sapiens) (UniProt P30304)", "inhibition", 27.5),
    ("COc1ccc2c(C(=O)/C=C/c3ccccc3)cc(=O)oc2c1", "M-phase inducer phosphatase 1 (Homo sapiens) (UniProt P30304)", "inhibition", 45),
]

(1) COc1ccc2c(C(=O)/C=C/c3ccc(OC)c(OC)c3)cc(=O)oc2c1
(2) Cc1c(-c2ccc(O)cc2)c(=O)oc2cc(O)ccc12
Problem: Endpoint returns whichever of 1 and 2 has the numerically higher inhibition. Kindly state the label of the option you pick.
Solution: 2

(1) O=C(/C=C/c1cc(=O)oc2cc(O)ccc12)c1ccccc1
(2) COc1ccc(-c2c(C)c3ccc(OC)cc3oc2=O)cc1
Problem: Endpoint returns whichever of 1 and 2 has the numerically higher inhibition. Kindly state the label of the option you pick.
Solution: 1

(P) COc1ccc(C(=O)/C=C/c2cc(=O)oc3cc(OC)ccc23)cc1
(Q) COc1ccc(C(=O)CSCc2cc(=O)oc3cc(OC)ccc23)cc1
Problem: # query: argmin of inhibition over P and Q Kindly state the label of the option you pick.
Solution: Q
(Q: 26.7%, P: 66.4%)

---

target: M-phase inducer phosphatase 1 (Homo sapiens, UniProt P30304); experiment: Inhibition of human recombinant GST-tagged CDC25A expressed in bacterial expression system after 2 hrs
Experimental Endpoint: IC50 (µM)

The examples below pair each entry with its known result.
# Chemical Structure, Target Or Test System, Unit Abbrev, IC50
records = [
    ("COc1ccc2c(/C=C/C(=O)c3ccccc3)cc(=O)oc2c1", "M-phase inducer phosphatase 1 (Homo sapiens, UniProt P30304)", "µM", 27),
    ("O=C(/C=C/c1cc(=O)oc2cc(O)ccc12)c1ccccc1", "M-phase inducer phosphatase 1 (Homo sapiens, UniProt P30304)", "µM", 28),
    ("COc1ccc(C(=O)/C=C/c2cc(=O)oc3cc(OC)ccc23)cc1", "M-phase inducer phosphatase 1 (Homo sapiens, UniProt P30304)", "µM", 70),
    ("COc1ccc2c(/C=C/C(=O)c3ccc(OC)c(OC)c3)cc(=O)oc2c1", "M-phase inducer phosphatase 1 (Homo sapiens, UniProt P30304)", "µM", 78),
]

(I) O=C(/C=C/c1cc(=O)oc2cc(O)ccc12)c1ccc(O)c(O)c1
(II) O=C(/C=C/c1cc(=O)oc2cc(O)ccc12)c1ccc(O)cc1
Problem: # query: argmin of IC50 over I and II Kindly state the label of the option you pick.
Solution: I
(I: 62 µM, II: 96 µM)

---

biological target: M-phase inducer phosphatase 3 (Homo sapiens) (UniProt P30307); experiment: Inhibition of human recombinant GST-tagged CDC25C expressed in bacterial expression system at 100 uM after 2 hrs
Sequence (P30307 whole entry): as the sequence (P30307 whole entry) above
Experimental Endpoint: inhibition (%)

The examples below pair each entry with its known result.
# Chemical Structure, Readout Value
measured = [
    ("COc1ccc2c(/C=C/C(=O)c3ccc(OC)c(OC)c3)cc(=O)oc2c1", 69),
    ("O=C(/C=C/c1cc(=O)oc2cc(O)ccc12)c1ccc(O)cc1", 23.9),
    ("O=C(/C=C/c1cc(=O)oc2cc(O)ccc12)c1ccc(O)c(O)c1", 43.7),
    ("COc1ccc(-c2c(C)c3ccc(OC)cc3oc2=O)cc1", 17.9),
    ("COc1ccc2c(CSCC(=O)c3ccccc3)cc(=O)oc2c1", 21.2),
    ("COc1ccc2c(CSCC(=O)c3ccc(OC)c(OC)c3)cc(=O)oc2c1", 26.2),
]

(P) O=C(/C=C/c1cc(=O)oc2cc(O)ccc12)c1ccccc1
(Q) COc1ccc(C(=O)/C=C/c2cc(=O)oc3cc(OC)ccc23)cc1
(R) COc1ccc2c(C(=O)/C=C/c3ccccc3)cc(=O)oc2c1
Problem: Please produce an ascending ranking of these molecules based on inhibition. I would appreciate it if you listed the labels in the requested order.
Solution: R, Q, P

(A) COc1ccc(/C=C/C(=O)c2cc(=O)oc3cc(OC)ccc23)cc1
(B) COc1ccc2c(/C=C/C(=O)c3ccccc3)cc(=O)oc2c1
Problem: Endpoint returns whichever of A and B has the numerically higher inhibition. Kindly state the label of the option you pick.
Solution: B
(B: 79.3%, A: 4.8%)
